System: 922993-354-T-J3-PDC complex spheroids, viability, % test/control
Assay: Anticancer human tumor 922993-354-T-J3-PDC patient-derived endometrial carcinoma cell line growth inhibition [CLK]
Conditions: curve of first compound; second compound 0.316 µM
pIC50: −log10 of the molar value.
In this section, each of the compounds is paired with its reported pIC50.

// solved cases for pIC50 follow
COMPOUND	pIC50
Cn1ncnc1[C@H]1c2n[nH]c(=O)c3cc(F)cc(c23)N[C@@H]1c1ccc(F)cc1 + CNC(=O)c1ccc(Nc2nc(OC3CCCC3)c3c(-c4ccc5nc(C)oc5c4)c[nH]c3n2)c(OC)c1	< 7.00
COc1c(OCCCN2CCOCC2)ccc2c3n(c(=NC(=O)c4cnc(N)nc4)nc12)CCN3 + CN1CCN(c2cc(C(=O)Nc3cc4cc(-c5cnn(C)c5)ccc4cn3)ccn2)CC1	> 8.50
COc1cccc2c1C(=O)c1c(O)c3c(c(O)c1C2=O)CC(O)(C(=O)CO)CC3OC1CC(N)C(O)C(C)O1 (stereo not given) + CNC(=O)c1ccc(Nc2nc(OC3CCCC3)c3c(-c4ccc5nc(C)oc5c4)c[nH]c3n2)c(OC)c1	5.72
C=CC(=O)Nc1cc(Nc2nccc(-c3cn(C)c4ccccc34)n2)c(OC)cc1N(C)CCN(C)C + CNC(=O)c1ccc(Nc2nc(OC3CCCC3)c3c(-c4ccc5nc(C)oc5c4)c[nH]c3n2)c(OC)c1	< 6.52
CC(CO)NC(=O)c1cc(-c2ccc(Cl)cc2)nn(-c2cnn(C)c2)c1=O (stereo not given) + CN1CCN(c2cc(C(=O)Nc3cc4cc(-c5cnn(C)c5)ccc4cn3)ccn2)CC1	> 7.50
CCc1c2c(nc3ccc(O)cc13)-c1cc3c(c(=O)n1C2)COC(=O)[C@]3(O)CC + CN1CCN(c2cc(C(=O)Nc3cc4cc(-c5cnn(C)c5)ccc4cn3)ccn2)CC1	> 8.50
C=CC(=O)N1CCN(c2nc(=O)n(-c3c(C)ccnc3C(C)C)c3nc(-c4c(O)cccc4F)c(F)cc23)C(C)C1 (stereo not given) + CNC(=O)c1ccc(Nc2nc(OC3CCCC3)c3c(-c4ccc5nc(C)oc5c4)c[nH]c3n2)c(OC)c1	< 5.00
CC1COCCN1c1cc(C2(S(C)(=N)=O)CC2)nc(-c2ccnc3[nH]ccc23)n1 (stereo not given) + CNC(=O)c1ccc(Nc2nc(OC3CCCC3)c3c(-c4ccc5nc(C)oc5c4)c[nH]c3n2)c(OC)c1	< 5.00
COC1C=CCC(C)C(C)S(=O)(=O)NC(=O)c2ccc3c(c2)N(CC2CCC21)CC1(CCCc2cc(Cl)ccc21)CO3 (stereo not given) + CN1CCN(c2cc(C(=O)Nc3cc4cc(-c5cnn(C)c5)ccc4cn3)ccn2)CC1	> 7.50

Now consider a different compound.
Notebook entry, 922993-354-T-J3-PDC complex spheroids, viability, % test/control assay: pIC50 of CC(Nc1ccc2c(c1)OCCn1cc(N3C(=O)OCC3C(F)F)nc1-2)C(N)=O (stereo not given) + CN1CCN(c2cc(C(=O)Nc3cc4cc(-c5cnn(C)c5)ccc4cn3)ccn2)CC1 = ?
7.22

* * *

Tested on: 922993-354-T-J3-PDC complex spheroids, viability, % test/control
Assay: Anticancer human tumor 922993-354-T-J3-PDC cell line growth inhibition [CLK]; active = viability on the fitted dose curve at most 10% of control; inactive = the rest;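 also: spheroids exposed to the agents for 7 days before readout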
Conditions: second compound 3.16 µM; first compound 0.0316 µM
Could you please pick one outcome from this set? T for active, F for inactive

COMPOUND	ASSIGNED LABEL
COc1cccc2c1C(=O)c1c(O)c3c(c(O)c1C2=O)CC(O)(C(=O)CO)CC3OC1CC(N)C(O)C(C)O1 (configuration not stated) + CNC(=O)c1ccc(Nc2nc(OC3CCCC3)c3c(-c4ccc5nc(C)oc5c4)c[nH]c3n2)c(OC)c1	F

Continue with the compound presented below.
Short answer needed: outcome of this test for CC(=O)O[C@H]1C(=O)[C@@]2(C)[C@H]([C@H](OC(=O)c3ccccc3)[C@]3(O)C[C@H](OC(=O)[C@H](O)[C@@H](NC(=O)c4ccccc4)c4ccccc4)C(C)=C1C3(C)C)[C@]1(OC(C)=O)CO[C@@H]1C[C@@H]2O + CN1CCN(c2cc(C(=O)Nc3cc4cc(-c5cnn(C)c5)ccc4cn3)ccn2)CC1 ?
T

* * *

System: 922993-354-T-J3-PDC complex spheroids, viability, % test/control
Assay: Anticancer human tumor 922993-354-T-J3-PDC cell line growth inhibition [CLK];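 also: spheroids exposed to the agents for 7 days before readout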
Conditions: second compound 10 µM; first compound 10 µM; stronger effect = lower value
In this section, each of the compounds is paired with its reported viability, T/C.
Please state the figure in %; there is no need to write the unit.

COMPOUND	UOM	viability, T/C
O=c1[nH]cc(F)c(=O)[nH]1 + CNC(=O)c1ccc(Nc2nc(OC3CCCC3)c3c(-c4ccc5nc(C)oc5c4)c[nH]c3n2)c(OC)c1	%	19.7
C#Cc1c(F)ccc2cc(O)cc(-c3ncc4c(N5CC6CCC(C5)N6)nc(OCC56CCCN5CC(F)C6)nc4c3F)c12 (centres undefined) + CN1CCN(c2cc(C(=O)Nc3cc4cc(-c5cnn(C)c5)ccc4cn3)ccn2)CC1	%	3.71
CC1COCCN1c1cc(C2(S(C)(=N)=O)CC2)nc(-c2ccnc3[nH]ccc23)n1 (centres undefined) + CNC(=O)c1ccc(Nc2nc(OC3CCCC3)c3c(-c4ccc5nc(C)oc5c4)c[nH]c3n2)c(OC)c1	%	9.29

Notebook entry, 922993-354-T-J3-PDC complex spheroids, viability, % test/control assay: viability, T/C of C=C(F)C(=O)N1CCN(c2nc(OCC3CCCN3C)nc3c2CCN(c2cccc4cccc(Cl)c24)C3)CC1CC#N (centres undefined) + CN1CCN(c2cc(C(=O)Nc3cc4cc(-c5cnn(C)c5)ccc4cn3)ccn2)CC1 = ?
0.93

Notebook entry, 922993-354-T-J3-PDC complex spheroids, viability, % test/control assay: viability, T/C of C#Cc1c(F)ccc2cc(O)cc(-c3ncc4c(N5CC6CCC(C5)N6)nc(OCC56CCCN5CC(F)C6)nc4c3F)c12 (centres undefined) + CNC(=O)c1ccc(Nc2nc(OC3CCCC3)c3c(-c4ccc5nc(C)oc5c4)c[nH]c3n2)c(OC)c1 = ?
31.5

Notebook entry, 922993-354-T-J3-PDC complex spheroids, viability, % test/control assay: viability, T/C of CC(CO)NC(=O)c1cc(-c2ccc(Cl)cc2)nn(-c2cnn(C)c2)c1=O (centres undefined) + CN1CCN(c2cc(C(=O)Nc3cc4cc(-c5cnn(C)c5)ccc4cn3)ccn2)CC1 = ?
1.23

Notebook entry, 922993-354-T-J3-PDC complex spheroids, viability, % test/control assay: viability, T/C of C=CC(=O)N1CCN(c2nc(=O)n(-c3c(C)ccnc3C(C)C)c3nc(-c4c(O)cccc4F)c(F)cc23)C(C)C1 (centres undefined) + CN1CCN(c2cc(C(=O)Nc3cc4cc(-c5cnn(C)c5)ccc4cn3)ccn2)CC1 = ?
0.2

* * *

System: 922993-354-T-J3-PDC complex spheroids, viability, % test/control
Assay: Anticancer human tumor 922993-354-T-J3-PDC cell line growth inhibition [CLK];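 also: spheroids exposed to the agents for 7 days before readout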
Details: second compound 0.0316 µM; first compound 0.1 µM; stronger effect = lower value
In this section, each of the compounds is paired with its reported viability, T/C.
Please state the figure in %; there is no need to write the unit.

Using the record for COc1cccc2c1C(=O)c1c(O)c3c(c(O)c1C2=O)CC(O)(C(=O)CO)CC3OC1CC(N)C(O)C(C)O1 (stereo not given) + CN1CCN(c2cc(C(=O)Nc3cc4cc(-c5cnn(C)c5)ccc4cn3)ccn2)CC1 , report its viability, T/C.
119

Using the record for CC(Nc1ccc2c(c1)OCCn1cc(N3C(=O)OCC3C(F)F)nc1-2)C(N)=O (stereo not given) + CN1CCN(c2cc(C(=O)Nc3cc4cc(-c5cnn(C)c5)ccc4cn3)ccn2)CC1 , report its viability, T/C.
105

* * *

System: 922993-354-T-J3-PDC complex spheroids, viability, % test/control
Assay: Anticancer human tumor 922993-354-T-J3-PDC cell line growth inhibition [CLK];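 also: spheroids exposed to the agents for 7 days before readout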
Details: second compound 0.316 µM; first compound 0.0316 µM; stronger effect = lower value
Threshold check on viability, T/C: strictly below 40% is criterion met; on or above 40% is criterion not met.

COMPOUND	TARGET SYSTEM	ASSIGNED LABEL
Cn1ncnc1[C@H]1c2n[nH]c(=O)c3cc(F)cc(c23)N[C@@H]1c1ccc(F)cc1 + CN1CCN(c2cc(C(=O)Nc3cc4cc(-c5cnn(C)c5)ccc4cn3)ccn2)CC1	922993-354-T-J3-PDC complex spheroids, viability, % test/control	criterion met
C=C(F)C(=O)N1CCN(c2nc(OCC3CCCN3C)nc3c2CCN(c2cccc4cccc(Cl)c24)C3)CC1CC#N (stereo unspecified) + CN1CCN(c2cc(C(=O)Nc3cc4cc(-c5cnn(C)c5)ccc4cn3)ccn2)CC1	922993-354-T-J3-PDC complex spheroids, viability, % test/control	criterion not met
O=c1[nH]cc(F)c(=O)[nH]1 + CN1CCN(c2cc(C(=O)Nc3cc4cc(-c5cnn(C)c5)ccc4cn3)ccn2)CC1	922993-354-T-J3-PDC complex spheroids, viability, % test/control	criterion met
Nc1ccn(C2OC(CO)C(O)C2(F)F)c(=O)n1 (stereo unspecified) + CN1CCN(c2cc(C(=O)Nc3cc4cc(-c5cnn(C)c5)ccc4cn3)ccn2)CC1	922993-354-T-J3-PDC complex spheroids, viability, % test/control	criterion met

Continue with the compound presented below.
Regarding COc1ccc([C@@H](O)c2cc(-c3ncnc4cc(N5CCOCC5)ccc34)c(F)cc2Cl)nn1 + CN1CCN(c2cc(C(=O)Nc3cc4cc(-c5cnn(C)c5)ccc4cn3)ccn2)CC1 , kindly confirm whether its viability, T/C is beneath 40%.
criterion met

Cited source: PubChem BioAssay AID2060606
